ENDPOINT_NAME: melting point

INSERT INTO results (compound, experimental_result) VALUES
  ('Nc1cc(N2CC(c3ccccc3)OC2=O)ccn1 (stereo not given)', '155 to 156 °C'),
  ('COC(=O)c1nc(-c2cc([N+](=O)[O-])c(Cl)cc2F)cc(N)c1Cl', '161 to 163 °C'),
  ('CCCCc1csc2ccc3[nH]c4c(c3c12)CN(C(C)C)CC4', '157 to 158 °C'),
  ('COc1ccc(/C(=C/C=C/C(=O)Oc2ccc([N+](=O)[O-])cc2)c2ccccc2)cc1', '113 to 115 °C');

Request the reported melting point associated with "CC(=O)OCc1ccccc1/C(=N\O)C(N)=O"
112 to 114 °C

// data source = a melting point compilation (Tetko et al.; mined from patent text by program, amines drawn as free bases though some values may be those of a salt)
